subject.of.test: Lysophosphatidic acid receptor 1 (Homo sapiens, UniProt Q92633)
Sequence (Q92633 whole entry): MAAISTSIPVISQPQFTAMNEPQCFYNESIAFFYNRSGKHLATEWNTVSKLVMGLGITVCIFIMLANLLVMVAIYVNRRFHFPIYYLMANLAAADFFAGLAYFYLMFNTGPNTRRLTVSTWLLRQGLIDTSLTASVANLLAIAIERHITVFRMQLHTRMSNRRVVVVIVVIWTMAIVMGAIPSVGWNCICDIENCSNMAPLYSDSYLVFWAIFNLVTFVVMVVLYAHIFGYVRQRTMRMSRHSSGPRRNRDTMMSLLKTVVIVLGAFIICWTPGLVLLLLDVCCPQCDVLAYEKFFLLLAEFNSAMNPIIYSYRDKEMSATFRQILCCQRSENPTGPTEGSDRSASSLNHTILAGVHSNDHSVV
assay.text: Antagonist activity at LPA1 receptor expressed in rat RH7777 cells assessed as inhibition of LPA-induced intracellular calcium concentration
I'd appreciate it if you could supply Ki values for the items below.
Answers are plain numbers, in µM.

O=C(O)/C=C/C(=O)Nc1ccc(Oc2cccc(Oc3ccc(NC(=O)/C=C/C(=O)O)cc3)c2)cc1
13.5

--- query ---
Incoming: Query Ki on Lysophosphatidic acid receptor 1 (Homo sapiens, UniProt Q92633) for O=C(O)/C=C/C(=O)Nc1cccc(NC(=O)/C=C/C(=O)O)c1
Outgoing: 0.05

----------
subject.of.test: Lysophosphatidic acid receptor 3 (Homo sapiens, UniProt Q9UBY5)
Sequence (Q9UBY5 whole entry): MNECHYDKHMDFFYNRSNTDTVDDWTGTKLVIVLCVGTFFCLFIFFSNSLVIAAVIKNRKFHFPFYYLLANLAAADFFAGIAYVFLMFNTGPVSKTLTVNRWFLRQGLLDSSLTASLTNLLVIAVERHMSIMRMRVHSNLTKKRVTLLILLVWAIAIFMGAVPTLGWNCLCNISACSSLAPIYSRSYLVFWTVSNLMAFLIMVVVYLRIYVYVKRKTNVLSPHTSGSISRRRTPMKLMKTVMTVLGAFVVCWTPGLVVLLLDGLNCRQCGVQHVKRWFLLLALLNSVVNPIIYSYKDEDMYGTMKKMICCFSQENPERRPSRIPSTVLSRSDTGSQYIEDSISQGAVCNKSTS
assay.text: Agonist activity at LPA3 receptor expressed in rat RH7777 cells assessed as LPA-induced intracellular calcium response
readout.type: EC50

Incoming: Please give the measured EC50 for this compound: CCOC(=O)c1ccc(/C=C/c2ccc(S(=O)(=O)O)cc2)cc1
Outgoing: > 11.8 µM

----------
subject.of.test: Lysophosphatidic acid receptor 2 (Homo sapiens, UniProt Q9HBW0)
Sequence (Q9HBW0 whole entry): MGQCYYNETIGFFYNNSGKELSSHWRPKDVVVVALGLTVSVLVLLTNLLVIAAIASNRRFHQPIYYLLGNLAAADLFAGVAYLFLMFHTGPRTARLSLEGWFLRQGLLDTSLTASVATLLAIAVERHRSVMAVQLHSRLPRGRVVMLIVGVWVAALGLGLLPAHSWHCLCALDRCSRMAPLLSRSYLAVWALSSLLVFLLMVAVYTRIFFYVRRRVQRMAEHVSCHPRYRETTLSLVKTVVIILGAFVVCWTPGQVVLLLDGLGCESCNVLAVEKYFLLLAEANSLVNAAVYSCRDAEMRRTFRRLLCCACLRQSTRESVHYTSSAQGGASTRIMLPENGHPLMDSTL
assay.text: Agonist activity at LPA2 receptor expressed in rat RH7777 cells assessed as LPA-induced intracellular calcium response
pEC50: −log10 of the molar value.
readout.type: pEC50

Incoming: Please give the measured pEC50 for this compound: CCOC(=O)c1ccc(/C=C/c2ccc(S(=O)(=O)O)cc2)cc1
Outgoing: < 4.94

----------
subject.of.test: Lysophosphatidic acid receptor 3 (Homo sapiens, UniProt Q9UBY5)
Sequence (Q9UBY5 whole entry): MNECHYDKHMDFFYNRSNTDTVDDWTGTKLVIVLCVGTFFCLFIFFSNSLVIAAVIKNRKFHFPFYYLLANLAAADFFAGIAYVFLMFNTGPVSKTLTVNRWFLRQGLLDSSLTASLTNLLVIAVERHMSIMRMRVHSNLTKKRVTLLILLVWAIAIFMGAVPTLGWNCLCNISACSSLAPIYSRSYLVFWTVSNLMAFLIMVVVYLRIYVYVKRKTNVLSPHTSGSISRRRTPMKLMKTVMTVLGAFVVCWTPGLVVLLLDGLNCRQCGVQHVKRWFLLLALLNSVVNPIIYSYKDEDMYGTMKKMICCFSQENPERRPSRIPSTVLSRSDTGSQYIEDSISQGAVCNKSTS
assay.text: Antagonist activity at LPA3 receptor expressed in rat RH7777 cells assessed as inhibition of LPA-induced intracellular calcium concentration
Type: functional, cell-based
Peptide text beside a SMILES is read from it. * marks the point of attachment. Dnp = O=[N+]([O-])c1ccc(*)c([N+](=O)[O-])c1
readout.type: IC50 (µM)
Give bare numbers, in µM.

// known answers, use as guide
NCC(=O)N[C@@H](CSc1ccc([N+](=O)[O-])cc1[N+](=O)[O-])C(=O)N[C@@H](CCC(=O)O)C(=O)O (H-Gly-Cys(Dnp)-Glu-OH)
0.024
O=C(O)/C=C/C(=O)Nc1ccc(-c2ccc(NC(=O)/C=C/C(=O)O)cc2)cc1
13.8
O=C(O)/C=C\C(=O)Nc1cccc(NC(=O)c2ccccc2)c1
0.347

--- query ---
Incoming: Please give the measured IC50 for this compound: O=C(O)/C=C/C(=O)Nc1ccc(Oc2cccc(Oc3ccc(NC(=O)/C=C/C(=O)O)cc3)c2)cc1
Outgoing: 1.23
